measurement target: human recombinant HDAC6 (Homo sapiens, UniProt Q9UBN7)
Construct: purchased Calbiochem 382180
experimental protocol: HDAC6 enzyme activity inhibition assay (HDAC Fluorimetric Drug Discovery Kit)
Type: biochemical
details: HDAC6 over HDAC1
measurement type: HDAC6 selectivity (fold)

Solved entries (count: 2):
[[record]]
mol_smiles = "C[C@@H]1CN(C(=O)N(Cc2ccc(-c3nnc(C(F)(F)F)o3)cc2)c2ccccc2)C[C@H](C)N1"
assay_value = 175

[[record]]
mol_smiles = "CCN1CCN(C(=O)N(Cc2ccc(-c3nnc(C(F)F)o3)cc2)c2cccc(Cl)c2)CC1"
assay_value = 1424


P. O=C(N1CCS(=O)(=O)CC1)N(Cc1ccc(-c2nnc(C(F)(F)F)o2)cc1F)c1ccc(F)c(Cl)c1
Q. CCN1CCN(C(=O)N(Cc2ccc(-c3nnc(C(F)(F)F)o3)cc2)c2ccccc2)CC1
R. Cc1cccc(N(Cc2ccc(-c3nnc(C(F)F)o3)cc2F)C(=O)N2CCN(C)CC2)c1
Prompt: Order field: HDAC6 selectivity (fold) | Direction: descending (largest first) Form field (ranking): labels in requested order.
Completion: R, P, Q

1. O=C(N1CCS(=O)(=O)CC1)N(Cc1ccc(-c2nnc(C(F)F)o2)cc1)c1cccc(-c2ccccc2)c1
2. CN1CCN(C(=O)N(Cc2ccc(-c3nnc(C(F)F)o3)cn2)c2ccc(F)c(Cl)c2)CC1
Prompt: Quick check, higher HDAC6 selectivity (fold) between 1 and 2 ? # respond with the chosen item's label
Completion: 2

----------
measurement target: human recombinant HDAC6 (Homo sapiens, UniProt Q9UBN7)
Construct: purchased Calbiochem 382180
Sequence (Q9UBN7 1-1215): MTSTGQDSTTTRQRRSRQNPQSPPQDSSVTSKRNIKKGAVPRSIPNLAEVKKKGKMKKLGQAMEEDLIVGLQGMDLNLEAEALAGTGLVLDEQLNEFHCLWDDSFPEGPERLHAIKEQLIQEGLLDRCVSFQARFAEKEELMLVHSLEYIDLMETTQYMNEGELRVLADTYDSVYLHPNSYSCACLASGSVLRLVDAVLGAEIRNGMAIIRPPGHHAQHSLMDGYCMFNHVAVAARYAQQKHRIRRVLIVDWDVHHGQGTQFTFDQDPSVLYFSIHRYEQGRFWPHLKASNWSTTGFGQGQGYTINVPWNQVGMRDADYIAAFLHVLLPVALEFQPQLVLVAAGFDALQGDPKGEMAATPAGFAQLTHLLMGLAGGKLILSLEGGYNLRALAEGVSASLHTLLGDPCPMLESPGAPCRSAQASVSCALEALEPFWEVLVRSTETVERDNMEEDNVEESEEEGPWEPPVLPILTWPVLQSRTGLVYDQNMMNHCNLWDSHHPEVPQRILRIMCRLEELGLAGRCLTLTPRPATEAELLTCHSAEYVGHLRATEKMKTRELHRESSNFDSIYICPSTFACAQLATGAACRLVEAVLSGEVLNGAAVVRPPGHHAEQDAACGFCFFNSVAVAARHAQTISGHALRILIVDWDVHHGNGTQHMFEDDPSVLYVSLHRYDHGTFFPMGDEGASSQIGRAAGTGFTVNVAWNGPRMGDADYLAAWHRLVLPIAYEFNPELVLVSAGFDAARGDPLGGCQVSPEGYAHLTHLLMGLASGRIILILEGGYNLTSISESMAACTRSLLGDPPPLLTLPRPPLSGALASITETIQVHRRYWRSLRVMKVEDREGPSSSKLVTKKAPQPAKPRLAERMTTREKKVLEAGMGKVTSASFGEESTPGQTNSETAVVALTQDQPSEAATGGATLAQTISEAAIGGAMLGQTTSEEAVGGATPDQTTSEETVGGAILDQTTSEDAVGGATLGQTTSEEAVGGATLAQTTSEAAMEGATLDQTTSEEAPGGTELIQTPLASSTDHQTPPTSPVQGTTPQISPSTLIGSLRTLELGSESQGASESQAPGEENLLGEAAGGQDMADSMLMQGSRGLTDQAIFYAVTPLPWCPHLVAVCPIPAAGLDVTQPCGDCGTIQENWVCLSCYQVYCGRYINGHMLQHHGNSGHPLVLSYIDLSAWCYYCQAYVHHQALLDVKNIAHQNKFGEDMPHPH
experimental protocol: HDAC6 enzyme activity inhibition assay (HDAC Fluorimetric Drug Discovery Kit)
Format: biochemical
details: HDAC6 over HDAC1
measurement type: HDAC6 selectivity (fold)

A. COc1ccccc1N(Cc1ccc(-c2nnc(C(F)F)o2)cc1F)C(=O)N1CCN(C)CC1
B. CN1CCC(c2ccc(N(Cc3ccc(-c4nnc(C(F)F)o4)cc3F)C(=O)N3CCS(=O)(=O)CC3)cc2)CC1
Prompt: Identify the entry with the smaller HDAC6 selectivity (fold): A or B . Give the chosen item's label as your response.
Completion: B
(B: 6 fold, A: 217 fold)

I. CC(C)(C)CN1CCN(Cc2ccc(N(Cc3ccc(-c4nnc(C(F)F)o4)cc3F)C(=O)N3CCS(=O)(=O)CC3)cc2)CC1
II. O=C(N1CCOCC1)N(Cc1ccc(-c2nnc(C(F)(F)F)o2)cc1)c1ccc(F)cc1F
III. O=C(N1CCOCC1)N(Cc1ccc(Cc2nnc(C(F)(F)F)o2)cc1)c1ccccc1
IV. O=C(N1CCOCC1)N(Cc1ccc(-c2nnc(C(F)F)o2)cn1)c1ccc(F)c(Cl)c1
Prompt: Arrange items by their HDAC6 selectivity (fold) values in increasing order. Put the labels in the order asked and list them.
Completion: III, I, II, IV

----------
measurement target: human recombinant HDAC6 (Homo sapiens)
Construct: purchased Calbiochem 382180
Sequence (Q9UBN7 1-1215): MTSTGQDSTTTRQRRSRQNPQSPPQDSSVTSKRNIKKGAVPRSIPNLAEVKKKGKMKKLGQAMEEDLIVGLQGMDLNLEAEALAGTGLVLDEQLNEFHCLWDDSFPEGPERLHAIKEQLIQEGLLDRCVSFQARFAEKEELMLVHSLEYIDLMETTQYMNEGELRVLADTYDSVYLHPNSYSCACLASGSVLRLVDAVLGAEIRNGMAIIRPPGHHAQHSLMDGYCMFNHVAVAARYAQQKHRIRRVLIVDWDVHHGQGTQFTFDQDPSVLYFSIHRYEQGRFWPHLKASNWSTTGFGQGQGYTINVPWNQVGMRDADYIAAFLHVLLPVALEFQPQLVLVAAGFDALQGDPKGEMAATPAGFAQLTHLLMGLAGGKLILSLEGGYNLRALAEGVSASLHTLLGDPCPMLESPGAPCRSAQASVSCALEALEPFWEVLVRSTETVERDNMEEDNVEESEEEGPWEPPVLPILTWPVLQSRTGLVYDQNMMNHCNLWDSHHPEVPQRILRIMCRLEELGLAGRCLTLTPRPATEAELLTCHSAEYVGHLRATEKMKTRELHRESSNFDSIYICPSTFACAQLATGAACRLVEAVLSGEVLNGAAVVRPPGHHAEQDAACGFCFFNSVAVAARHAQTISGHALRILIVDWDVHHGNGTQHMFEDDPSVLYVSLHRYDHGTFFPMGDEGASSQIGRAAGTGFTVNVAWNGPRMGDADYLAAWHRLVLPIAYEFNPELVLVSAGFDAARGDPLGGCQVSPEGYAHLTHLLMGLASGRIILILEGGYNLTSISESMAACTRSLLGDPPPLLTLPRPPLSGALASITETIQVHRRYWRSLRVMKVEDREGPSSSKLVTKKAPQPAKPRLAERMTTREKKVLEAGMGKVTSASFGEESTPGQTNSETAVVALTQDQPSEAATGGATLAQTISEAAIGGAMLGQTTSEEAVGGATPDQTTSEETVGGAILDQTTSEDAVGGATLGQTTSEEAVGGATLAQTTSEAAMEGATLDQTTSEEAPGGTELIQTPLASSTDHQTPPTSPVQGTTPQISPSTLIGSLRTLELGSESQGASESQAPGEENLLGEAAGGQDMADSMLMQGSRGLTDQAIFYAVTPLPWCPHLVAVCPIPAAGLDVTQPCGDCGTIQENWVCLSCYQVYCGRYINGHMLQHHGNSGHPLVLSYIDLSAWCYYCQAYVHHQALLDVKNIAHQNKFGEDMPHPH
experimental protocol: HDAC6 enzyme activity inhibition assay (HDAC Fluorimetric Drug Discovery Kit)
Format: biochemical
details: HDAC6 over HDAC1
measurement type: HDAC6 selectivity (fold)

Known HDAC6 selectivity (fold) results, listed for orientation:
[[record]]
compound = "O=C(N1CCOCC1)N(Cc1ccc(-c2nnc(C(F)F)o2)cc1F)c1ccccc1 [Compound 21337]"
assay_value = 357

[[record]]
compound = "O=C(N1CCS(=O)(=O)CC1)N(Cc1ccc(-c2nnc(C(F)F)o2)cn1)c1ccc(-c2cccnc2)cc1 [Compound 21824]"
assay_value = 563


A. COc1cccc(N(Cc2ccc(-c3nnc(C(F)F)o3)cc2)C(=O)N2CCN(C3COC3)CC2)c1 [Compound 21948]
B. COc1ccc(N(Cc2ccc(-c3nnc(C(F)F)o3)cc2)C(=O)N2CCN(C3COC3)CC2)cc1 [Compound 21951]
C. O=C(NC1CCCC1)N(Cc1ccc(-c2nnc(C(F)(F)F)o2)cc1)c1ccccc1 [Compound 21341]
Prompt: Place the items in sequence of falling HDAC6 selectivity (fold). Give the labels in the order specified.
Completion: A, B, C

a. O=C(N1CCOCC1)N(Cc1ccc(-c2nnc(C(F)F)o2)cc1F)c1cccc(Cl)c1 [Compound 21853]
b. O=C(N1CCN(C2COC2)CC1)N(Cc1ccc(-c2nnc(C(F)F)o2)cc1F)c1ccc(Cl)cc1 [Compound 21946]
Prompt: In the pair a and b , the larger recorded HDAC6 selectivity (fold) belongs to which? Give the label of your selection.
Completion: a
